Experiment: Protein binding in human plasma at 5 uM incubated for 6 hrs by equilibrium dialysis based HPLC analysis
# key: entry, value: fraction unbound at 6 h, 5 µM

[
  {
    "smi": "CCN1C(=O)N(c2ccc(C3CC3)cc2)C(=O)C12CCN(CC1CCOCC1)CC2",
    "fraction unbound at 6 h, 5 µM": 0.291
  },
  {
    "smi": "CCN1C(=O)N([C@H]2CC[C@H](C(F)(F)F)CC2)C(=O)C12CCN(CC1CCOCC1)CC2",
    "fraction unbound at 6 h, 5 µM": 0.296
  }
]

---

half-life at 24 h values for the compounds below.
Experiment: Half-life in female C57BL/6 mouse at 10 mg/kg, po measured after 24 hrs by LC-MS/MS analysis
Conditions: in vivo

[
  {
    "smi": "CCN1C(=O)N(c2ccc(C3CC3)cc2)C(=O)C12CCN(CC1CCOCC1)CC2",
    "half-life at 24 h": "3.3 h"
  },
  {
    "smi": "CCN1C(=O)N([C@H]2CC[C@H](C(F)(F)F)CC2)C(=O)C12CCN(CC1CCOCC1)CC2",
    "half-life at 24 h": "5.3 h"
  }
]

---

Test: in vitro
Conditions: CD-1, mouse, pooled liver microsomes
Entry flag: true (1) if CLhep predicted at 1 h, 1 µM reaches 20 mL/min/kg; false (0) if it does not.

[
  {
    "smi": "O=C1NC2(CCN(CC3CCOCC3)CC2)C(=O)N1c1ccc(C(F)(F)F)cc1",
    "assignedClass": "false (0)"
  },
  {
    "smi": "CCN1C(=O)N(c2ccc(C)cc2)C(=O)C12CCN(CC1CCOCC1)CC2",
    "assignedClass": "false (0)"
  },
  {
    "smi": "CCN1C(=O)N(c2cccc(C3CC3)c2)C(=O)C12CCN(CC1CCOCC1)CC2",
    "assignedClass": "true (1)"
  },
  {
    "smi": "CCN1C(=O)N(c2ccc(C3CC3)cc2)C(=O)C12CCN(CC1CCOCC1)CC2",
    "assignedClass": "false (0)"
  },
  {
    "smi": "CCN1C(=O)N(c2ccc(C(F)(F)F)cc2)C(=O)C12CCN(CC1CCOCC1)CC2",
    "assignedClass": "false (0)"
  },
  {
    "smi": "CCN1C(=O)N([C@H]2CC[C@H](C(F)(F)F)CC2)C(=O)C12CCN(CC1CCOCC1)CC2",
    "assignedClass": "false (0)"
  },
  {
    "smi": "CC(C)N1C(=O)N(c2ccc(C(F)(F)F)cc2)C(=O)C12CCN(CC1CCOCC1)CC2",
    "assignedClass": "false (0)"
  },
  {
    "smi": "O=C1N(c2ccc(C(F)(F)F)cc2)CCC12CCN(CC1CCOCC1)CC2",
    "assignedClass": "false (0)"
  },
  {
    "smi": "O=C1N(c2ccc(C(F)(F)F)cc2)C(=O)C2(CCN(CC3CCOCC3)CC2)N1C1CC1",
    "assignedClass": "false (0)"
  },
  {
    "smi": "CCN1C(=O)N(c2ccc(Cl)cc2)C(=O)C12CCN(CC1CCOCC1)CC2",
    "assignedClass": "true (1)"
  },
  {
    "smi": "CCN1C(=O)N(c2cc(Cl)cc(C#N)c2)C(=O)C12CCN(CC1CCOCC1)CC2",
    "assignedClass": "true (1)"
  },
  {
    "smi": "CN1C(=O)N(c2ccc(C(F)(F)F)cc2)C(=O)C12CCN(CC1CCOCC1)CC2",
    "assignedClass": "false (0)"
  }
]
